Target: Xanthine oxidase (XOD), febuxostat binding domain (Bos taurus, UniProt P80457)
Construct: purchased Sigma-Aldrich Co., Ltd. (St. Louis, MO, USA)
Sequence (P80457 whole entry, the tested form may be a part): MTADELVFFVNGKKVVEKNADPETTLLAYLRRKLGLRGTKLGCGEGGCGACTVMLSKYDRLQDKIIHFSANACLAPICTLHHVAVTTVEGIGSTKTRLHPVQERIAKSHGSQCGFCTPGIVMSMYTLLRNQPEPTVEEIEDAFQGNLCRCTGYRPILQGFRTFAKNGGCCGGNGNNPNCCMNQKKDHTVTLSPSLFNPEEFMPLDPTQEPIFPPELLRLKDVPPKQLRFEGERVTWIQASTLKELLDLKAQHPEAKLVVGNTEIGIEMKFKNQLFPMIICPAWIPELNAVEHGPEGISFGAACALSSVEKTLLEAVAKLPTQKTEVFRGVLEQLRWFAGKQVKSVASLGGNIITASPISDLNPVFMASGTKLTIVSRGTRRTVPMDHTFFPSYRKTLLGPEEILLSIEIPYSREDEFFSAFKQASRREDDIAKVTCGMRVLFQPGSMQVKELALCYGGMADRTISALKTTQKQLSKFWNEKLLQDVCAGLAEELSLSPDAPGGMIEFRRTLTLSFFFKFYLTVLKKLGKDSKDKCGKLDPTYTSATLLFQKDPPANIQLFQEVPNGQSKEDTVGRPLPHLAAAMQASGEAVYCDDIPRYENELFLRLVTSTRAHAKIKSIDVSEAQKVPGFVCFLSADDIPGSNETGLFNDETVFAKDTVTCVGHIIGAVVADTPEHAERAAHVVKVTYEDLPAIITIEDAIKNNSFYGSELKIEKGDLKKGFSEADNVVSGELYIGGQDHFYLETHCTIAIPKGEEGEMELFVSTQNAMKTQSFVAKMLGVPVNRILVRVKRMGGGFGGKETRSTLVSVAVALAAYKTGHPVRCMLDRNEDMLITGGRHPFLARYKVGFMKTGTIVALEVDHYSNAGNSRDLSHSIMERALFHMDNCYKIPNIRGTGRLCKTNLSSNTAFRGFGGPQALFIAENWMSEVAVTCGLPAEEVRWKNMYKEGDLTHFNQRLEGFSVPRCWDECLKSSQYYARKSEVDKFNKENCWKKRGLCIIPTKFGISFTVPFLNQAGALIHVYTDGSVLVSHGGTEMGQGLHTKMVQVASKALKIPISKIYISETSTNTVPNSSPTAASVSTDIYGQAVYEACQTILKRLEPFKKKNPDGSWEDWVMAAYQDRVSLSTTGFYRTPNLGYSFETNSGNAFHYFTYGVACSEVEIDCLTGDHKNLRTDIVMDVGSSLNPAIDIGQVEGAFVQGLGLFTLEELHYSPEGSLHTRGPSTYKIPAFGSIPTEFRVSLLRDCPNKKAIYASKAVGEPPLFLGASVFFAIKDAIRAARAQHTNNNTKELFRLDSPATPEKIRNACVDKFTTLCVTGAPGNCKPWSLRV
Test: Affinity ultrafiltration LC-MS (UF-LC-MS) screening, febuxostat-masked vs unmasked XOD
Conditions: peak area with vs without febuxostat preincubation of XOD; extract 2 mg/mL
Description: Based on the variation in the chromatogram with and without febuxostat binding in the XOD, the binding degree was used to evaluate the febuxostat competitive capacity of compounds in celery seeds. The binding degree (BD) was calculated as follows: BD(%)=Af−Ano_f/Af×100% Af and Ano_f represent the peak area of compounds in the chromatogram with and without preincubation with febuxostat, respectively. […]
Measurement type: binding degree (BD) (%)
Give your result in % as a bare value.

Worked set:
CCCC[C@H]1OC(=O)C2=C1CC[C@H](O)[C@H]2O [Compound 11, Senkyunolide J] :: 50.5
O=c1cc(-c2ccc(O)cc2)oc2cc(O)cc(O)c12 [Compound 24, Apigenin] :: 95.5
C[C@@]1(O)CO[C@@H](O[C@H]2[C@H](Oc3cc(O)c4c(=O)cc(-c5ccc(O)c(O)c5)oc4c3)O[C@H](COC(=O)CC(=O)O)[C@@H](O)[C@@H]2O)[C@@H]1O [Compound 14, Luteolin 7-O-malonyl-apiosylglucoside] :: 93.6

// moving on: another record for binding degree (BD)
State, in one line, measured binding degree (BD) of O=C(O)CC(=O)OC[C@H]1O[C@@H](Oc2cc(O)c3c(=O)cc(-c4ccc(O)c(O)c4)oc3c2)[C@H](O)[C@@H](O)[C@@H]1O [Compound 15, Luteolin 7-O-6′-malonyl glucoside]
99.0

----------
biological target: Xanthine oxidase (XOD), febuxostat binding domain (Bos taurus); construct: purchased Sigma-Aldrich Co., Ltd. (St. Louis, MO, USA); assay: Affinity ultrafiltration LC-MS (UF-LC-MS) screening, febuxostat-masked vs unmasked XOD; conditions: peak area with vs without febuxostat preincubation of XOD; extract 2 mg/mL
Reported binding degree (BD) values for the following compounds.
Field format: number, assumed %, no unit text.

O=c1cc(-c2ccc(O)c(O)c2)oc2cc(O[C@@H]3O[C@H](CO)[C@@H](O)[C@H](O)[C@H]3O[C@@H]3OC[C@](O)(CO)[C@H]3O)cc(O)c12 [Compound 9, Luteolin 7-O-apiosylglucoside] :: 89.1

Identify binding degree (BD) associated with the compound "O=c1cc(-c2ccc(O)c(O)c2)oc2cc(O)cc(O)c12"
97.8

Check the records and state binding degree (BD) for "O=C(O)CC(=O)OC[C@H]1O[C@@H](Oc2cc(O)c3c(=O)cc(-c4ccc(O)cc4)oc3c2)[C@H](O[C@@H]2OC[C@](O)(CO)[C@H]2O)[C@@H](O)[C@@H]1O"
63.2

Using known records, supply binding degree (BD) for COc1cc(-c2cc(=O)c3c(O)cc(OC4OC(COC(=O)CC(=O)O)C(O)C(O)C4OC4OCC(O)(CO)C4O)cc3o2)ccc1O (stereo not drawn)
52.0

Output measured binding degree (BD) for this item: O=c1cc(-c2ccc(O)c(O)c2)oc2cc(O[C@@H]3O[C@H](CO)[C@@H](O)[C@H](O)[C@H]3O)cc(O)c12 [Compound 10, Luteolin 7-O-glucoside]
95.9

Complete the entry with binding degree (BD) for "COc1cc(-c2cc(=O)c3c(O)cc(O)cc3o2)ccc1O"
96.7
